- Tested on: A498
- test_method_notes: NCI tumour cell line growth inhibition, 48 h
The source made the active and inactive calls. Cut-off read from the data, not from the text of the source: active = GI50 up to about 1.1 µM and inactive = higher.
parameter_measured: GI50

Below, each entry is followed by its recorded GI50 result.
- CC(NNC(=O)c1cc[n+]([BH2-]C#N)cc1)c1ccc(Cl)c(Cl)c1 (centres undefined): 33.7 µM (inactive)
- O=C1O[C@H]2[C@H](O)[C@@H](OC(=O)c3cc(O)c(O)c4c3[C@@H]3C1=CC(=O)C(O)(O)C3(O)O4)[C@H](OC(=O)c1cc(O)c(O)c(O)c1)O[C@@H]2CO (some centres undefined): > 100 µM (inactive)
- CC(C)(C)OC(=O)n1c2ccccc2c2c(=O)nc(N3CCCCC3)sc21: > 100 µM (inactive)

Please look at the following compound next.
Input: Find GI50 (A498) for the entry "COc1cc2c(cc1C)NC(=O)/C2=C/c1c(Cl)n(-c2ccccc2)c2ccccc12"
Output: 32.8 µM (inactive)

====

Below is a list of entries, each paired with its recorded GI50 value.
- Tested on: EKVX
- test_method_notes: NCI tumour cell line growth inhibition, 48 h
The source made the active and inactive calls. No stated cut-off is given here; in the data, active = GI50 up to about 1.1 µM and inactive = higher.

Below, each entry is followed by its recorded GI50 result.
• Cc1cc(S(=O)(=O)NC2=NCc3nc4ccccc4n32)c(S)cc1Cl = 29.3 µM (inactive)
• O=S1(=O)c2ccccc2N(O)C2=NCCN21 = > 100 µM (inactive)

Input: Find GI50 (EKVX) for the entry O=C1C2C3SC(c4cc5ccccc5cc43)C2C(=O)N1c1ccccc1 (stereo not given)
Output: > 100 µM (inactive)

Input: Moving on to the next molecule: "Clc1ccc(-c2cn3c(nc4ccccc43)c(-c3ccccc3)n2)cc1"
Output: 64.3 µM (inactive)

Input: Moving on to the next molecule: COC(=O)C(=O)C(C(=O)C(=O)Nc1cccc(C(C)=O)c1)c1nc2ccc([N+](=O)[O-])cc2nc1O (stereo not given)
Output: > 100 µM (inactive)

====

- System: U-251
- test_method_notes: NCI tumour cell line growth inhibition, 48 h
Active and inactive are the calls of the source. Cut-off read from the data, not from the text of the source: active = GI50 up to about 1.1 µM and inactive = higher.
parameter_measured: GI50

* O=C1C[C@H](CCC(=O)OCc2ccccc2)NC(=O)C[C@H](CCC(=O)OCc2ccccc2)NC(=O)C[C@H](CCC(=O)OCc2ccccc2)N1 | 5.24 µM (inactive)
* COc1cc(C(N)=O)c(OC)c(OC)c1OC | > 100 µM (inactive)
* c1c[nH]c(CN2CCN(Cc3ncc[nH]3)CC2)n1 | > 100 µM (inactive)
* CSCC[C@H](NC(=O)[C@H](CC(C)C)NC(=O)[C@@H](Cc1ccccc1)NC(=O)CNC(=O)[C@@H](NC(=O)[C@H](C)NC(=O)[C@H](Cc1c[nH]c2ccccc12)NC(=O)[C@H](CCC(N)=O)NC(=O)[C@H](N)CC(N)=O)C(C)C)C(N)=O | > 12.5 µM (inactive)
* CCOC(=O)C1OC(=O)CC1C1(C(=O)OCC)C=CC(=O)O1 (centres undefined) | 93.8 µM (inactive)
* Cc1cc(S(=O)(=O)NC2=NCc3nc4ccccc4n32)c(S)cc1Cl | 33.5 µM (inactive)
* C=C1C(=O)OC2/C=C(\C)C(O)/C=C\C(C)(O)CC(OC(=O)/C(C)=C/C)C12 (centres undefined) | > 67.8 µM (inactive)
* Cc1cc2c(c(/C=N/c3ccccc3O)c1)OC1(C=C2)Oc2ccccc2C(=O)N1C (centres undefined) | 18.2 µM (inactive)
* CC(=O)OCC1OC(c2nnc(C)o2)=CC(OC(C)=O)C1OC(C)=O (centres undefined) | > 100 µM (inactive)
* CCOC(=O)C1(C(=O)OCC)CC(=O)[C@@]2(C1)OCC[C@H]1OC(=O)C[C@H]12 | > 100 µM (inactive)

Please look at the following compound next.
Input: Data request, read-out GI50, for c1ncc(C23C4C5C6C4C2C6C53)[nH]1 (centres undefined)
Output: > 100 µM (inactive)
